assay: Metabolic stability in human intestinal S9 fraction assessed as half-life at 10 uM up to 60 mins by LC/MS/MS analysis; format: ADME, subcellular, Intestine

| Cpd Smiles | half-life at 10 µM / min |
| --- | --- |
| CCOC(=O)[C@H](F)ON1C(=O)N2C[C@H]1C=C(C)[C@H]2C(=O)NCCS(N)(=O)=O | 22 |

* * *

assay: Metabolic stability in rat liver S9 fraction assessed as half-life at 10 uM up to 60 mins by LC/MS/MS analysis; format: ADME, subcellular

| Cpd Smiles | half-life at 10 µM, min |
| --- | --- |
| CCOC(=O)[C@H](F)ON1C(=O)N2C[C@H]1C=C(C)[C@H]2C(=O)NCCS(N)(=O)=O | 10 |
